experiment: growth inhibitors of E. coli tolC mutant, primary screen, strain BW25113 ΔtolC::kan, 384-well (AID 573); conditions: OD615, screened at 10 µM (by protocol);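 further: growth measured after 20 h incubation at 37 °C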
Out of some 65,000 compounds screened, about 1,400 (2.2%) were called active.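 How the source made its calls: active means growth inhibition at or above a cutoff equal to the mean over every tested compound plus 3 SD (cut at about 60% in these data); inactive means the rest.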 Only a selection was taken, and actives are over-represented in it overall.
Outcome codes: active, inactive

> print(dat)
                                    compound  assigned.label
 1          CCOC(=O)CSc1nnc(-c2cccc(Br)c2)o1        inactive
 2  COc1ccc(Cc2nnc(NS(=O)(=O)Cc3ccccc3)s2)cc1        inactive
 3        CC(=O)Nc1ccc(-c2nn3c(C)nnc3s2)cc1C        inactive
 4  Cc1nc2nc(COc3ccccc3)[nH]n2c(=O)c1Cc1ccccc1          active
 5        CCCN(CCC)C(=O)C1c2ccccc2Oc2ccccc21        inactive
 6        Cc1nc2nc(COc3ccccc3)[nH]n2c(=O)c1C        inactive
 7  Cc1cc(NC(=O)CN2CCC(O)(c3cccc(F)c3)CC2)no1        inactive
 8     Cc1nc2c(-c3ccccc3)c(C)[nH]n2c(=O)c1Cl          active
 9                COc1ccccc1NC(=O)c1ccc(C)s1        inactive
10  O=C(CC1Oc2ccccc2NC1=O)NCCCN1CCN(Cc2ccccc2)CC1 (stereo not given)        inactive

* * *

assay: growth inhibitors of E. coli tolC mutant, primary screen, strain BW25113 ΔtolC::kan, 384-well (AID 573); conditions: OD615, screened at 10 µM (by protocol);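 further: growth measured after 20 h incubation at 37 °C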
About 1,400 (2.2%) of roughly 65,000 compounds were called active.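 The calls were made as follows: active = growth inhibition at or above a cutoff equal to the mean over every tested compound plus 3 SD (cut at about 60% in these data); inactive = the rest.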 This excerpt belongs to a sample that is enriched for actives.
Outcome codes: active, inactive

> print(dat)
                                   compound  assigned.label
1  Cc1oc(-c2ccccc2F)nc1CS(=O)(=O)CC(=O)NCCCN(C)C1CCCCC1        inactive
2  Cc1ccccc1-c1nc(CS(=O)(=O)CC(=O)N2CCc3ccccc3C2)c(C)o1          active
3  O=C(Nc1nc(-c2ccncc2)cs1)C1COc2ccccc2O1 (stereo not given)        inactive
4  CCn1c(SCC(=O)Nc2nc3ccc(OC)cc3s2)nnc1-c1ccoc1C        inactive
5    O=C(CSc1nc2ccccc2o1)N1CCN(c2ccccc2)CC1        inactive

* * *

test: growth inhibitors of E. coli tolC mutant, primary screen, strain BW25113 ΔtolC::kan, 384-well (AID 573); conditions: OD615, stronger effect = higher value, screened at 10 µM (by protocol);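 further: growth measured after 20 h incubation at 37 °C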
About 1,400 (2.2%) of roughly 65,000 compounds were called active. This is one part of a sample in which actives are shown more often than they occur.
readout.label: growth inhibition (%)

> print(dat)
                                    compound      readout.label  result
 1  CCOC(=O)C1C(=O)NC(N2CCN(c3ccccc3)CC2)=NC1c1ccco1 (stereo not drawn)  growth inhibition    -7.5
 2  COC(=O)COc1ccc(S(=O)(=O)Nc2ccc(NC(C)=O)cc2)cc1  growth inhibition    -1.6
 3  Fc1ccc(Cn2nnnc2C(c2cccs2)N2CCCCCC2)cc1 (stereo not drawn)  growth inhibition    85.7
 4  CCCOC(=O)C1=C(C)NC2=C(C(=O)C(C(=O)OC)C(C)C2)C1c1ccc(N(C)C)cc1 (stereo not drawn)  growth inhibition      16
 5       O=C1CCCN1CCCNc1ncnc2c1[nH]c1ccccc12  growth inhibition   -26.6
 6  CCOC(=O)c1ccc(NC(=O)CS(=O)(=O)c2cn(CC)c3ccccc23)cc1  growth inhibition    12.6
 7  Cc1cnc(NC(=O)CSc2nnc(-c3ccccc3)n2Cc2ccccc2)s1  growth inhibition       1
 8  O=C(Nc1ccc(-c2nnc(-c3ccccc3)o2)cc1)c1ccc(Br)o1  growth inhibition   -0.33
 9          Cc1cccc(NC(=O)COc2ccc(Br)cc2C)n1  growth inhibition    8.04
10  CC1(c2ccccc2Cl)NC(=O)N(CC(=O)NC(=O)NCc2ccco2)C1=O (stereo not drawn)  growth inhibition   -3.76
11  O=C(Nc1ccccc1N1CCN(c2ccccc2)CC1)c1cccc(F)c1  growth inhibition    17.8
12  CC(C)c1ccc(N2CC(C(=O)Nc3nccs3)CC2=O)cc1 (stereo not drawn)  growth inhibition    9.63
13  CCOC(=O)N1CCN(C(=O)c2cn(C)c3ccc(S(=O)(=O)N4CCCC4)cc3c2=O)CC1  growth inhibition   -22.7
14  CCOC(=O)c1sc(NC(=S)n2cc(C)cn2)c(C(=O)OCC)c1C  growth inhibition    23.8
15           O=C(Nc1ccc(Cl)cn1)c1cnn2cccnc12  growth inhibition   -3.45
16  Fc1ccccc1C(c1nnnn1Cc1ccc2c(c1)OCO2)N1CCN(Cc2ccccc2)CC1 (stereo not drawn)  growth inhibition    20.4
17  COc1ccccc1N1CCN(C(=O)c2cc(-c3ccc(Br)cc3)on2)CC1  growth inhibition    63.8
18  CCc1nnc(NS(=O)(=O)c2ccc(NS(=O)(=O)c3ccccc3)cc2)s1  growth inhibition      19
19  COc1ccc(C2=NOC(C(=O)NCc3ccco3)C2)cc1OC (stereo not drawn)  growth inhibition   -12.4
20   Cc1ccc2c(c1)c1ncnc(N3CCc4ccccc4C3)c1n2C  growth inhibition    21.5
21         COc1ccccc1-c1cc(C(=O)N2CCCCC2)no1  growth inhibition    7.63
22  O=C(NCCCN1CCCCCC1)C1CC(=O)N(C2CCCC2)C1 (stereo not drawn)  growth inhibition   -11.7
23             CCOC(=O)c1c(-n2cnnn2)sc(C)c1C  growth inhibition    1.46
24    O=C(Nc1nnc(-c2ccc(Cl)cc2)o1)c1ccccc1Br  growth inhibition     100
25  COc1ccc(N2CC(C)Cn3c2nc2c3c(=O)n(Cc3ccccc3F)c(=O)n2C)c(OC)c1 (stereo not drawn)  growth inhibition    13.4
26  CCCn1c(=NC(C)=O)c(C(=O)OCC)cc2c(=O)n3ccccc3nc21  growth inhibition   -3.58
27  Cc1cc2nc(-c3ccc(NC(=O)c4cccnc4)cc3)oc2cc1C  growth inhibition    10.2
28       CC(C)OCCCNc1ncnc2c1[nH]c1ccc(F)cc12  growth inhibition    96.2
